# tested_system: UniProt P08908
# Sequence (P08908 1-422): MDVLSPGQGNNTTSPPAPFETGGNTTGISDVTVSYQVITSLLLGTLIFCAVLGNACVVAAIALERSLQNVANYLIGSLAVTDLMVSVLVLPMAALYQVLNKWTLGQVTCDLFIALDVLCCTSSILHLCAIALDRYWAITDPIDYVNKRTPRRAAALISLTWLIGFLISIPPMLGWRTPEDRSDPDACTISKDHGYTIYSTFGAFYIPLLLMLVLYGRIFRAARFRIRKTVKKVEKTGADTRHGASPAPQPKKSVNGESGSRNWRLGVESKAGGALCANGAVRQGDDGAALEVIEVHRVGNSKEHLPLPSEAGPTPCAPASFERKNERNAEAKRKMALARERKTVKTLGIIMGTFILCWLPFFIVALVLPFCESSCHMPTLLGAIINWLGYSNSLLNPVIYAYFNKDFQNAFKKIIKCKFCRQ
# measurement_description: cAMP accumulation assay, 5-HT1A function
# conditions_used: cells marked EC50 (agonist)
For each record, write down the corresponding EC50.
Give bare numbers, in nM.

Past entries and their recorded results:
>>> numeric_readout("COc1cccc2c1CC(N(C)CCCc1c[nH]c3ccc(F)cc13)CO2 (centres unmarked)")
95.2
>>> numeric_readout("CCN(CCc1c[nH]c2ccc(F)cc12)C1CCc2cccc(OC)c2C1 (centres unmarked)")
35.5
>>> numeric_readout("CCCN(CCCc1c[nH]c2ccc(F)cc12)[C@H]1COc2c(F)ccc(OC)c2C1")
36.5
>>> numeric_readout("CCCN(CCCc1c[nH]c2ccc(F)cc12)C1COc2cccc(OC)c2C1 (centres unmarked)")
39.3
>>> numeric_readout("CCN(CCCc1c[nH]c2ccc(F)cc12)C1COc2c(F)ccc(C(N)=O)c2C1 (single isomer, unassigned; (+))")
31.4

Each of the following entries comes with a recorded value; kindly state EC50 for each.
1. COC(=O)c1ccc(F)c2c1CC(NCCCc1c[nH]c3ccc(F)cc13)CO2 (centres unmarked)
2. CCN(C(C)CCc1c[nH]c2ccc(F)cc12)C1COc2c(F)ccc(C(N)=O)c2C1 (single isomer, unassigned; (+)) [Compound 16b]
3. CCCN(CCCc1c[nH]c2ccccc12)C1CCc2cccc(OC)c2C1 (centres unmarked)
4. CCN(CCCc1c[nH]c2ccc(F)cc12)C1COc2cccc(C(N)=O)c2C1 (centres unmarked)
5. CCCN(CCCc1c[nH]c2ccc(F)cc12)[C@@H]1CCc2cccc(OC)c2C1 [Compound 47b]
6. CCCN(CCCc1c[nH]c2ccc(Cl)cc12)C1COc2c(F)ccc(C(N)=O)c2C1 (centres unmarked)

Response:
1. 16.3
2. 164
3. 2.52
4. 3.65
5. 1.55
6. 7.82

Each of the following entries comes with a recorded value; kindly state EC50 for each.
1. CCCN(C(C)CCc1c[nH]c2ccc(C#N)cc12)C1COc2c(F)ccc(C(N)=O)c2C1 (single isomer, unassigned) [Compound 13b]
2. CCN(CCCCc1c[nH]c2ccc(F)cc12)C1COc2c(C(N)=O)ccc(F)c2C1 (centres unmarked)

Response:
139
781

Each of the following entries comes with a recorded value; kindly state EC50 for each.
1. CC(CCc1c[nH]c2ccc(F)cc12)N(CC1CC1)C1COc2c(F)ccc(C(N)=O)c2C1 (single isomer, unassigned; (+)) [Compound 15b]
2. CCCN(CCCc1coc2ccccc12)C1COc2c(F)ccc(C(N)=O)c2C1 (centres unmarked)
3. CCCN(CCCc1c[nH]c2ccc(F)cc12)C1COc2c(F)ccc(C(N)=O)c2C1 (single isomer, unassigned; (-)) [Compound 2a]
4. COC(=O)c1cccc2c1CC(N(CCCc1c[nH]c3c(F)cc(F)cc13)C1CCC1)CO2 (centres unmarked)

Response:
1: 32.4; 2: 62.2; 3: 18.5; 4: 635

Each of the following entries comes with a recorded value; kindly state EC50 for each.
1. COc1cccc2c1CC(N(CCCCc1c[nH]c3ccc(F)cc13)C1CCC1)CO2 (centres unmarked)
2. COC(=O)c1ccc(F)c2c1C[C@@H](NCCCCc1c[nH]c3ccc(F)cc13)CO2 [Compound 57b]
3. COc1cccc2c1CC(N(CCCc1c[nH]c3ccc(F)cc13)CC1CCC1)CO2 (centres unmarked)

Response:
1. 12.3
2. 180
3. 154

Each of the following entries comes with a recorded value; kindly state EC50 for each.
1. CCCN(CCCCn1ccc2c(F)cccc21)C1COc2c(F)ccc(C(N)=O)c2C1 (centres unmarked)
2. O=C(NC1CCC1)c1cccc2c1CC(N(CCCc1c[nH]c3c(F)cc(F)cc13)C1CCC1)CO2 (centres unmarked)
3. COc1cccc2c1CC(N(CCCc1c[nH]c3ccc(F)cc13)CC1CC1)CO2 (centres unmarked)

Response:
1. 137
2. 523
3. 14.1

Each of the following entries comes with a recorded value; kindly state EC50 for each.
1. CCCN(CCCc1c[nH]c2ccc(F)cc12)[C@@H]1COc2c(F)ccc(OC)c2C1
2. CCCN(CCCCn1ccc2ccc(F)cc21)C1COc2c(F)ccc(C(N)=O)c2C1 (centres unmarked)
3. CCN(CCCc1c[nH]c2ccc(OC)cc12)C1COc2c(F)ccc(C(N)=O)c2C1 (centres unmarked)
4. CCN(CCCc1csc2ccccc12)C1COc2cccc(OC)c2C1 (centres unmarked)
5. COc1cccc2c1CC(N(CCCc1c[nH]c3ccc(C#N)cc13)CC1CC1)CO2 (centres unmarked)
6. CCCN(CCc1c[nH]c2ccc(F)cc12)C1COc2cccc(OC)c2C1 (centres unmarked)
7. COC(=O)c1ccc(F)c2c1CC(NCCCCc1c[nH]c3ccc(F)cc13)CO2 (centres unmarked)

Response:
1. 16.4
2. 74.1
3. 96.7
4. 11
5. 77.3
6. 77.1
7. 87.1

Each of the following entries comes with a recorded value; kindly state EC50 for each.
1. NC(=O)c1cccc2c1CC(N(CCCc1c[nH]c3ccc(F)cc13)CC1CC1)CO2 (centres unmarked)
2. CCCN(CCCCc1c[nH]c2ccc(F)cc12)C1COc2cccc(OC)c2C1 (centres unmarked)

Response:
1: 0.54; 2: 27.7

Source of measurements: patent US20050032873A1
